tested on: Escherichia coli IAI1; assay: fold change of Cadaverine concentration vs plate DMSO controls (fold change (ratio)); higher = more amine produced, active = hit call of the paper (significant change in both replicates, either direction); conditions: incubation time: 27 h, anaerobic, 37 °C
Counter-ions that a name gives are not always drawn.
Overview of recorded fold change of Cadaverine concentration for various compounds
I'd appreciate a reply containing only the number, no unit.

In the examples that follow, each entry is paired with its recorded fold change of Cadaverine concentration.
| compound | fold change of Cadaverine concentration |
| --- | --- |
| COc1ccc(-c2ccc3cc(C(=O)O)ccc3c2)cc1C12CC3CC(CC(C3)C1)C2 [Adapalene] (20 µM) | 1.02 |
| CN(C)C/C=C(/c1ccc(Br)cc1)c1cccnc1 [Zimelidine dihydrochloride monohydrate] (20 µM) | 1.49 |

Any idea what fold change of Cadaverine concentration came out for NC(=O)c1cccnc1 [Nicotinamide] (20 µM) on Escherichia coli IAI1?
1

What about COC(=O)Nc1nc2cc([S+]([O-])c3ccccc3)ccc2[nH]1 (centres undefined) [Oxfendazole] (20 µM) ?
0.981

What about COCC(=O)O[C@]1(CCN(C)CCCc2nc3ccccc3[nH]2)CCc2cc(F)ccc2[C@@H]1C(C)C [Mibefradil hydrochloride] (20 µM) ?
1.02

What about CCCNC(C)(C)C(=O)Nc1ccccc1C [Quatacaine] (20 µM) ?
0.951

---

test system: Klebsiella aerogenes DSM 30053; assay: fold change of Cadaverine concentration vs plate DMSO controls (fold change (ratio)); higher = more amine produced, active = hit call of the paper (significant change in both replicates, either direction); conditions: incubation time: 27 h, anaerobic, 37 °C
Counter-ions that a name gives are not always drawn.
measured metric: fold change of Cadaverine concentration
I'd appreciate a reply containing only the number, no unit.

In the examples that follow, each entry is paired with its recorded fold change of Cadaverine concentration.
| molecule | data value |
| --- | --- |
| CCCCOCCOCCOCc1cc2c(cc1CCC)OCO2 (20 µM) | 1 |
| Cc1nc(=O)c2cc(CN(C)c3ccc(C(=O)N[C@@H](CCC(=O)O)C(=O)O)s3)ccc2[nH]1 [Raltitrexed] (20 µM) | 1.05 |
| CCCCOc1ccc(C(=O)CCN2CCCCC2)cc1 [Dyclonine hydrochloride] (20 µM) | 0.984 |
| CCS(=O)(=O)CCn1c([N+](=O)[O-])cnc1C [Tinidazole] (20 µM) | 0.993 |

Now, please, on to the next molecule.
Any idea what fold change of Cadaverine concentration came out for CCN(CC)CCCC(C)Nc1ccnc2cc(Cl)ccc12 (stereo not given) [Chloroquine diphosphate] (20 µM) on Klebsiella aerogenes DSM 30053?
0.985

---

system: Ruminococcus gnavus DSM 108212; assay: fold change of Tryptamine concentration vs plate DMSO controls (fold change (ratio)); higher = more amine produced, active = hit call of the paper (significant change in both replicates, either direction); settings: incubation time: 27 h, anaerobic, 37 °C;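 for the amine columns active = adjusted P below 0.05 in both replicates with a change the same way and a mean fold change under 0.8 or over 1.25; inactive = the rest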
Counter-ions that a name gives are not always drawn.
Respond using exactly one of the listed classes: active, inactive

Study these solved cases before continuing.
| compound | label class |
| --- | --- |
| Cc1cc(C#N)cc(C)c1Oc1nc(Nc2ccc(C#N)cc2)nc(N)c1Br [Etravirine] (20 µM) | inactive |
| CCC(=O)c1ccc(O)cc1 [Paroxypropione] (20 µM) | inactive |
| CCN1CC(CCN2CCOCC2)C(c2ccccc2)(c2ccccc2)C1=O (stereo not given) [Doxapram hydrochloride] (20 µM) | inactive |
| C=CCN1CCCC1CNC(=O)c1cc2nn[nH]c2cc1OC (stereo not given) [Alizapride hydrochloride] (20 µM) | inactive |
| NC(=O)NC1NC(=O)NC1=O (stereo not given) [Allantoin] (20 µM) | inactive |
| Nc1ccc(S(=O)(=O)c2ccc(N)cc2)cc1 [Dapsone] (20 µM) | inactive |
| COc1cc2nc(N3CCN(C(=O)c4ccco4)CC3)nc(N)c2cc1OC [Prazosin hydrochloride] (20 µM) | inactive |
| O=C1NCCN1c1ncc([N+](=O)[O-])s1 [Niridazole] (20 µM) | active |
| CCN1CCC[C@H]1CNC(=O)c1c(OC)ccc(Br)c1OC [Remoxipride hydrochloride] (20 µM) | inactive |
| CCN(CC)C(=O)/C(C#N)=C/c1cc(O)c(O)c([N+](=O)[O-])c1 [Entacapone] (20 µM) | inactive |

So what was the verdict on CN1CCCN(C(c2ccccc2)c2ccc(Cl)cc2)CC1 (stereo not given) [Homochlorcyclizine dihydrochloride] (20 µM) in this test?
inactive

What about OCC(CO)N[C@H]1C[C@](O)(CO)[C@@H](O)[C@H](O)[C@H]1O [Voglibose] (20 µM) ?
inactive
